pIC50: −log10 of the molar value.
pIC50, UniProt P07477, per-entry values.
Sequence (P07477 whole entry): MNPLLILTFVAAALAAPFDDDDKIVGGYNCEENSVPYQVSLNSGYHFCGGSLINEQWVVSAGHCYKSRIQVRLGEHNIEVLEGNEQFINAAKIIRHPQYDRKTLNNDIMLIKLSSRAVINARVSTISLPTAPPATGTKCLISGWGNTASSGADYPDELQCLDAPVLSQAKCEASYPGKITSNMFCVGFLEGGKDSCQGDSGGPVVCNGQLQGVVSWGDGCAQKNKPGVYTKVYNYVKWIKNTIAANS
Quantity Measured: pIC50

{"columns": ["Structure Notation", "Quantity Measured", "Result"],
 "data": [
  ["CN(Cc1ccc(C(=O)Nc2ccc(Cl)cc2C(=O)Nc2ccc(Cl)cn2)cc1)C1=NCCS1", "pIC50", "< 4.96"],
  ["NC(=O)C1CCN(Cc2ccc(C(=O)Nc3ccc(Cl)cc3C(=O)Nc3ccc(Cl)cn3)cc2)CC1", "pIC50", "< 4.96"],
  ["NC1CCN(Cc2ccc(C(=O)Nc3ccc(Cl)cc3C(=O)Nc3ccc(Cl)cn3)cc2)CC1", "pIC50", "< 4.96"],
  ["N=C1OCCN1Cc1ccc(C(=O)Nc2ccc(Cl)cc2C(=O)Nc2ccc(Cl)cn2)cc1", "pIC50", "< 4.96"],
  ["CN(Cc1ccc(C(=O)Nc2ccc(Cl)cc2C(=O)Nc2ccc(Cl)cn2)cc1)C(=N)N", "pIC50", "< 4.96"]
]}

====

Procedure Summary: Oral bioavailability in dog
Type: ADME, organism-based, Canis lupus familiaris
Experimental Setup: in vivo
Quantity Measured: bioavailability (%)

{"columns": ["Structure Notation", "Quantity Measured", "Result Number"],
 "data": [
  ["COc1cc(Cl)cc(C(=O)Nc2ccc(Cl)cn2)c1NC(=O)c1scc(CN(C)C2=NCCO2)c1Cl", "bioavailability", 40]
]}

====

Assayed System: UniProtKB P00742
Sequence (P00742 41-179 limits assumed): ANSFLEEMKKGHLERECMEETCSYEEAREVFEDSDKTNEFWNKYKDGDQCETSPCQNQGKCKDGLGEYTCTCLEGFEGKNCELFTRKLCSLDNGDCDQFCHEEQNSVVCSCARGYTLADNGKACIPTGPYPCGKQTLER
Sequence (P00742 235-488 limits assumed): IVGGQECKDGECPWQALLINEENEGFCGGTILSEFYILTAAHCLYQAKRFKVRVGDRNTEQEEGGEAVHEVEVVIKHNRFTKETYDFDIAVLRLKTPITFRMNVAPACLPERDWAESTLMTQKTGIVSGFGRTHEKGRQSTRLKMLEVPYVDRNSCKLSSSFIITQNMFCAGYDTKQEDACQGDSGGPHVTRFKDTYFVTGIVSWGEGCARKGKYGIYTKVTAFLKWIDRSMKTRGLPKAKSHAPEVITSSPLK
pIC50: −log10 of the molar value.
Catalogue of pIC50 readings, one per entry.
Quantity Measured: pIC50

{"columns": ["Structure Notation", "Quantity Measured", "Result Number"],
 "data": [
  ["NC1=NCCCCN1Cc1ccc(C(=O)Nc2ccc(Cl)cc2C(=O)Nc2ccc(Cl)cn2)cc1", "pIC50", 8.20],
  ["CNCCN(C)Cc1ccc(C(=O)Nc2ccc(Cl)cc2C(=O)Nc2ccc(Cl)cn2)cc1", "pIC50", 8.17],
  ["O=C(Nc1ccc(Cl)cc1C(=O)Nc1ccc(Cl)cn1)c1ccc(CN2CCCCC2)cc1", "pIC50", 7.82],
  ["NCc1ccc(C(=O)Nc2ccc(Cl)cc2C(=O)Nc2ccc(Cl)cn2)cc1", "pIC50", 8.00],
  ["O=C(Nc1ccc(Cl)cc1C(=O)Nc1ccc(Cl)cn1)c1ccc(CN2CCCC2)cc1", "pIC50", 7.80],
  ["CNCc1ccc(C(=O)Nc2ccc(Cl)cc2C(=O)Nc2ccc(Cl)cn2)cc1", "pIC50", 8.15],
  ["CN1CCN(Cc2ccc(C(=O)Nc3ccc(Cl)cc3C(=O)Nc3ccc(Cl)cn3)cc2)CC1", "pIC50", 7.82]
]}

Source: ChEMBL document CHEMBL1147578
